system: human polymorphonuclear leukocytes (PMNL); assay: ROS generation from PMNL, lucigenin-amplified chemiluminescence; assay type: cell-based; conditions: Homo sapiens, PMNL; unstimulated cells and cells stimulated with opsonized zymosan or PMA; read-out: IC₅₀ values, inhibition of ROS generation

{"Smiles Data": "CCN1CCc2[nH]c3cc(F)c4scc(C)c4c3c2C1", "Experimental System": "human polymorphonuclear leukocytes (PMNL)", "IC50 (µM)": 7}

* * *

Tested on: 50 kDa protein
Experiment: Phosphorylation of synaptosomal plasma membranes: CaM-dependent phosphorylation of the 50 kDa protein
Type: biochemical
Details: in the presence of exogenous CaM (3 units/assay); read-out: IC₅₀-value, CaM-dependent phosphorylation of the 50 kDa protein
Experimental: Subcellular fractionation and phosphorylation assay were performed according to Kristjansson et al., (1982). […] After a preincubation at 30°C for 5 min, the phosphorylation reaction was started by adding the ATP. The reaction was stopped after 15 sec. […] Phosphorylation of B-50 and the 50 kDa protein, which was only phosphorylated after addition of CaM, was measured in the presence of exogenous CaM (3 units/assay) and quantified.
Measurement Type: IC50

{"Smiles Data": "CCN1CCc2[nH]c3cc(F)c4scc(C)c4c3c2C1", "Measurement Type": "IC50", "Recorded Value": "< 1 µM"}

* * *

Reported values of LDH release for individual entries
system: HaCaT cells; assay: Cytotoxicity, LDH release into the culture medium; conditions: 48 h after onset of drug exposure

{"Compound": "CC(CN1c2ccccc2Sc2ccccc21)N(C)C (centres unmarked)", "LDH release [µM]": 100}
{"Compound": "CN[C@@H]1C[C@H]2O[C@@](C)([C@@H]1OC)n1c3ccccc3c3c4c(c5c6ccccc6n2c5c31)C(=O)NC4", "LDH release [µM]": 10}
{"Compound": "CN1CCN(CCCN2c3ccccc3Sc3ccc(C(F)(F)F)cc32)CC1", "LDH release [µM]": 30}
{"Compound": "CN(C)CCCN1c2ccccc2Sc2ccc(Cl)cc21", "LDH release [µM]": 30}
{"Compound": "NCCCCCCNS(=O)(=O)c1cccc2c(Cl)cccc12", "LDH release [µM]": 100}
